System: Escherichia coli TOP10
test-protocol: shrunken log2 fold change of peptide-encoding DNA abundance (4.5 h post-induction vs induction); higher = less antimicrobial activity (less host growth inhibition)
test-parameters: time post-induction: 4.5 h; library: site-saturation at positions 5, 18, 19, 20
Decision: shrunken log2 fold change >= -0.007 yields 1, all other cases yield -1.

Task: Assess whether reported shrunken log2 fold change for RRIRRRPPRLPRPRPRPFMIPRP sits at -0.007 or higher.
Result: -1

Task: Assess whether reported shrunken log2 fold change for RRIRCRPPRLPRPRPRPWQDPRP sits at -0.007 or higher.
Result: -1

Task: Assess whether reported shrunken log2 fold change for RRIRVRPPRLPRPRPRPNCYPRP sits at -0.007 or higher.
Result: -1

Task: Assess whether reported shrunken log2 fold change for RRIRGRPPRLPRPRPRPYWSPRP sits at -0.007 or higher.
Result: -1

Task: Assess whether reported shrunken log2 fold change for RRIRPRPPRLPRPRPRPYPGPRP sits at -0.007 or higher.
Result: -1

Task: Assess whether reported shrunken log2 fold change for RRIRIRPPRLPRPRPRPVFFPRP sits at -0.007 or higher.
Result: -1

Task: Assess whether reported shrunken log2 fold change for RRIRARPPRLPRPRPRPISEPRP sits at -0.007 or higher.
Result: 1

Task: Assess whether reported shrunken log2 fold change for RRIRERPPRLPRPRPRPCNTPRP sits at -0.007 or higher.
Result: -1

Task: Assess whether reported shrunken log2 fold change for RRIRQRPPRLPRPRPRPIIAPRP sits at -0.007 or higher.
Result: 1

Task: Assess whether reported shrunken log2 fold change for RRIRYRPPRLPRPRPRPFSTPRP sits at -0.007 or higher.
Result: -1

Task: Assess whether reported shrunken log2 fold change for RRIRMRPPRLPRPRPRPQDIPRP sits at -0.007 or higher.
Result: -1

Task: Assess whether reported shrunken log2 fold change for RRIRARPPRLPRPRPRPHPFPRP sits at -0.007 or higher.
Result: 1

Task: Assess whether reported shrunken log2 fold change for RRIRNRPPRLPRPRPRPNQWPRP sits at -0.007 or higher.
Result: -1

Task: Assess whether reported shrunken log2 fold change for RRIRSRPPRLPRPRPRPKTSPRP sits at -0.007 or higher.
Result: 1

Task: Assess whether reported shrunken log2 fold change for RRIRHRPPRLPRPRPRPPWCPRP sits at -0.007 or higher.
Result: 1

Task: Assess whether reported shrunken log2 fold change for RRIRLRPPRLPRPRPRPHQWPRP sits at -0.007 or higher.
Result: -1

Task: Assess whether reported shrunken log2 fold change for RRIRPRPPRLPRPRPRPVFMPRP sits at -0.007 or higher.
Result: -1

Task: Assess whether reported shrunken log2 fold change for RRIRARPPRLPRPRPRPCGHPRP sits at -0.007 or higher.
Result: 1

Task: Assess whether reported shrunken log2 fold change for RRIRSRPPRLPRPRPRPFEVPRP sits at -0.007 or higher.
Result: -1

Task: Assess whether reported shrunken log2 fold change for RRIRTRPPRLPRPRPRPREKPRP sits at -0.007 or higher.
Result: 1

Task: Assess whether reported shrunken log2 fold change for RRIRDRPPRLPRPRPRPASRPRP sits at -0.007 or higher.
Result: 1

Task: Assess whether reported shrunken log2 fold change for RRIRARPPRLPRPRPRPNMYPRP sits at -0.007 or higher.
Result: -1

Task: Assess whether reported shrunken log2 fold change for RRIRVRPPRLPRPRPRPTEDPRP sits at -0.007 or higher.
Result: -1

Task: Assess whether reported shrunken log2 fold change for RRIRCRPPRLPRPRPRPFICPRP sits at -0.007 or higher.
Result: -1

Task: Assess whether reported shrunken log2 fold change for RRIRSRPPRLPRPRPRPCRFPRP sits at -0.007 or higher.
Result: -1

Task: Assess whether reported shrunken log2 fold change for RRIRMRPPRLPRPRPRPRKKPRP sits at -0.007 or higher.
Result: 1

Task: Assess whether reported shrunken log2 fold change for RRIRIRPPRLPRPRPRPFTSPRP sits at -0.007 or higher.
Result: -1

Task: Assess whether reported shrunken log2 fold change for RRIRERPPRLPRPRPRPDSWPRP sits at -0.007 or higher.
Result: -1

Task: Assess whether reported shrunken log2 fold change for RRIRKRPPRLPRPRPRPRNWPRP sits at -0.007 or higher.
Result: 1

Task: Assess whether reported shrunken log2 fold change for RRIRERPPRLPRPRPRPGHYPRP sits at -0.007 or higher.
Result: -1

Task: Assess whether reported shrunken log2 fold change for RRIRWRPPRLPRPRPRPCGFPRP sits at -0.007 or higher.
Result: 1

====

System: Escherichia coli TOP10
test-protocol: shrunken log2 fold change of peptide-encoding DNA abundance (4.5 h post-induction vs induction); higher = less antimicrobial activity (less host growth inhibition)
test-parameters: time post-induction: 4.5 h; library: site-saturation at positions 5, 18, 19, 20
endpoint-label: shrunken log2 fold change
// no unit, no text: just the number

Task: For Escherichia coli TOP10, provide shrunken log2 fold change of RRIRPRPPRLPRPRPRPKGPPRP please.
Result: 0.641

Task: For Escherichia coli TOP10, provide shrunken log2 fold change of RRIRKRPPRLPRPRPRPGYHPRP please.
Result: 0.0924

Task: For Escherichia coli TOP10, provide shrunken log2 fold change of RRIRSRPPRLPRPRPRPLAYPRP please.
Result: 0.0208

Task: For Escherichia coli TOP10, provide shrunken log2 fold change of RRIRNRPPRLPRPRPRPQSKPRP please.
Result: -0.301

Task: For Escherichia coli TOP10, provide shrunken log2 fold change of RRIRVRPPRLPRPRPRPVKHPRP please.
Result: -0.3

Task: For Escherichia coli TOP10, provide shrunken log2 fold change of RRIRIRPPRLPRPRPRPVLWPRP please.
Result: 0.199

Task: For Escherichia coli TOP10, provide shrunken log2 fold change of RRIRYRPPRLPRPRPRPGYIPRP please.
Result: -0.0964

Task: For Escherichia coli TOP10, provide shrunken log2 fold change of RRIRCRPPRLPRPRPRPKSFPRP please.
Result: -0.288

====

Test system: Escherichia coli TOP10;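 also: peptides expressed intracellularly from a pBAD plasmid library in pooled LB shake-flask culture, induced with 0.3% L-arabinose, DNA abundance read by NGS, three biological replicates, DESeq2 with apeglm shrinkage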
test-protocol: shrunken log2 fold change of peptide-encoding DNA abundance (4.5 h post-induction vs induction); higher = less antimicrobial activity (less host growth inhibition)
test-parameters: time post-induction: 4.5 h; library: site-saturation at positions 5, 18, 19, 20
Consider the following sequences; for each one, report its shrunken log2 fold change.

Task: For Escherichia coli TOP10, provide shrunken log2 fold change of RRIRMRPPRLPRPRPRPWMVPRP please.
Result: -0.128

Task: For Escherichia coli TOP10, provide shrunken log2 fold change of RRIRSRPPRLPRPRPRPSYTPRP please.
Result: -0.437

Task: For Escherichia coli TOP10, provide shrunken log2 fold change of RRIRNRPPRLPRPRPRPQDIPRP please.
Result: -0.252

Task: For Escherichia coli TOP10, provide shrunken log2 fold change of RRIRERPPRLPRPRPRPGSCPRP please.
Result: -0.0703

Task: For Escherichia coli TOP10, provide shrunken log2 fold change of RRIRLRPPRLPRPRPRPVPQPRP please.
Result: 0.238

Task: For Escherichia coli TOP10, provide shrunken log2 fold change of RRIRDRPPRLPRPRPRPKNQPRP please.
Result: -0.076

Task: For Escherichia coli TOP10, provide shrunken log2 fold change of RRIRGRPPRLPRPRPRPFWVPRP please.
Result: 0.15

Task: For Escherichia coli TOP10, provide shrunken log2 fold change of RRIRPRPPRLPRPRPRPWLEPRP please.
Result: -0.0732

Task: For Escherichia coli TOP10, provide shrunken log2 fold change of RRIRQRPPRLPRPRPRPTCYPRP please.
Result: -0.309

Task: For Escherichia coli TOP10, provide shrunken log2 fold change of RRIRLRPPRLPRPRPRPQDWPRP please.
Result: -0.104

Task: For Escherichia coli TOP10, provide shrunken log2 fold change of RRIRCRPPRLPRPRPRPQLKPRP please.
Result: -0.194

Task: For Escherichia coli TOP10, provide shrunken log2 fold change of RRIRKRPPRLPRPRPRPQWGPRP please.
Result: 0.227

Task: For Escherichia coli TOP10, provide shrunken log2 fold change of RRIRKRPPRLPRPRPRPQPPPRP please.
Result: 0.672

Task: For Escherichia coli TOP10, provide shrunken log2 fold change of RRIRGRPPRLPRPRPRPTCIPRP please.
Result: 0.351

Task: For Escherichia coli TOP10, provide shrunken log2 fold change of RRIRSRPPRLPRPRPRPNYVPRP please.
Result: -0.906

Task: For Escherichia coli TOP10, provide shrunken log2 fold change of RRIRTRPPRLPRPRPRPSALPRP please.
Result: -0.178

Task: For Escherichia coli TOP10, provide shrunken log2 fold change of RRIRRRPPRLPRPRPRPTCYPRP please.
Result: -0.242

Task: For Escherichia coli TOP10, provide shrunken log2 fold change of RRIRPRPPRLPRPRPRPMEEPRP please.
Result: -0.0433

Task: For Escherichia coli TOP10, provide shrunken log2 fold change of RRIRLRPPRLPRPRPRPQTTPRP please.
Result: -0.152

Task: For Escherichia coli TOP10, provide shrunken log2 fold change of RRIRIRPPRLPRPRPRPSVTPRP please.
Result: -0.781

Task: For Escherichia coli TOP10, provide shrunken log2 fold change of RRIRFRPPRLPRPRPRPAIDPRP please.
Result: -0.00326

Task: For Escherichia coli TOP10, provide shrunken log2 fold change of RRIRMRPPRLPRPRPRPESFPRP please.
Result: 0.0441

Task: For Escherichia coli TOP10, provide shrunken log2 fold change of RRIRRRPPRLPRPRPRPRVEPRP please.
Result: 0.662

Task: For Escherichia coli TOP10, provide shrunken log2 fold change of RRIRWRPPRLPRPRPRPPVLPRP please.
Result: 0.433

Task: For Escherichia coli TOP10, provide shrunken log2 fold change of RRIRDRPPRLPRPRPRPFNCPRP please.
Result: 0.0412

Task: For Escherichia coli TOP10, provide shrunken log2 fold change of RRIRERPPRLPRPRPRPITFPRP please.
Result: -0.338

Task: For Escherichia coli TOP10, provide shrunken log2 fold change of RRIRGRPPRLPRPRPRPWVCPRP please.
Result: 0.0844

Task: For Escherichia coli TOP10, provide shrunken log2 fold change of RRIRCRPPRLPRPRPRPDWYPRP please.
Result: -0.241

Task: For Escherichia coli TOP10, provide shrunken log2 fold change of RRIRARPPRLPRPRPRPNWTPRP please.
Result: 0.0524

Task: For Escherichia coli TOP10, provide shrunken log2 fold change of RRIRARPPRLPRPRPRPTATPRP please.
Result: 1.2

Task: For Escherichia coli TOP10, provide shrunken log2 fold change of RRIRDRPPRLPRPRPRPDWEPRP please.
Result: 0.0165

Task: For Escherichia coli TOP10, provide shrunken log2 fold change of RRIRARPPRLPRPRPRPNRAPRP please.
Result: -0.0385

Values from the supplement of paper PMC9112550
